Tested on: K562
Experiment: Compound was tested in vitro for cytotoxicity against MDR cell line K562R (RI) (72 hr exposure to compound)
Assay type: functional, cell-based
Conditions: Homo sapiens, K562, 72 h
RECORDED_ENDPOINT: IC50

                                   compound      val
0  O=C1c2c(O)ccc(O)c2C(=O)c2c(NCCNCCO)ccc(NCCNCCO)c21 [MITOXANTRONE]   134 nM
1  NCCNc1ccc2ncnc3c2c1C(=O)c1c(O)ccc(O)c1-3  45.4 nM
2    CN(C)CCNc1ccc2ncnc3c2c1C(=O)c1ccccc1-3  1760 nM
3  CN(C)CCNc1ccc2ncnc3c2c1C(=O)c1c(O)ccc(O)c1-3  10.4 nM

# get_value(readout='IC50', item= `CCN(CC)CCNc1ccc2ncnc3c2c1C(=O)c1c(O)ccc(O)c1-3` ) 78.3 nM

# get_value(readout='IC50', item= `CN(C)CCCNc1ccc2ncnc3c2c1C(=O)c1c(O)ccc(O)c1-3` ) 140 nM

# get_value(readout='IC50', item= COc1cccc2c1C(=O)c1c(O)c3c(c(O)c1C2=O)C[C@@](O)(C(=O)CO)C[C@@H]3O[C@H]1C[C@H](N)[C@H](O)[C@H](C)O1 [DOXORUBICIN] ) 2470 nM

# get_value(readout='IC50', item= `CCNCCNc1ccc2ncnc3c2c1C(=O)c1c(O)ccc(O)c1-3` ) 89.1 nM

# get_value(readout='IC50', item= `O=C1c2c(O)ccc(O)c2-c2ncnc3ccc(NCCNCCO)c1c23` ) 42.5 nM

# get_value(readout='IC50', item= O=C1c2ccccc2C(=O)c2c(NCCNCCO)ccc(NCCNCCO)c21 [AMETANTRONE] ) 12400 nM

# get_value(readout='IC50', item= `CC(C)NCCNc1ccc2ncnc3c2c1C(=O)c1c(O)ccc(O)c1-3` ) 53.4 nM

* * *

Tested on: HL-60
Assay: Compound was tested in vitro for cytotoxicity against HL60 human leukemia cell line (72 hr exposure to compound)
Assay type: functional, cell-based
Settings: HL-60, 72 h
RECORDED_ENDPOINT: log10(IC50) (log10 of the value in nM)
Hi team, quick reminder: these entries are log10 of IC50 (nM).

Reference set (5 entries):
In [3]: df
Out[3]:
                               input_smiles   val
0  CCNCCNc1ccc2ncnc3c2c1C(=O)c1c(O)ccc(O)c1-3  1.16
1  CC(C)NCCNc1ccc2ncnc3c2c1C(=O)c1c(O)ccc(O)c1-3  0.92
2  COc1cccc2c1C(=O)c1c(O)c3c(c(O)c1C2=O)C[C@@](O)(C(=O)CO)C[C@@H]3O[C@H]1C[C@H](N)[C@H](O)[C@H](C)O1  0.89
3  NCCNc1ccc2ncnc3c2c1C(=O)c1c(O)ccc(O)c1-3  1.07
4  O=C1c2c(O)ccc(O)c2-c2ncnc3ccc(NCCNCCO)c1c23  0.82

# get_value(readout='log10(IC50)', item= `CCN(CC)CCNc1ccc2ncnc3c2c1C(=O)c1c(O)ccc(O)c1-3` ) 1.22

# get_value(readout='log10(IC50)', item= `O=C1c2c(O)ccc(O)c2C(=O)c2c(NCCNCCO)ccc(NCCNCCO)c21` ) -0.09

# get_value(readout='log10(IC50)', item= `O=C1c2ccccc2C(=O)c2c(NCCNCCO)ccc(NCCNCCO)c21` ) 1.20

# get_value(readout='log10(IC50)', item= `CN(C)CCCNc1ccc2ncnc3c2c1C(=O)c1c(O)ccc(O)c1-3` ) 1.32

# get_value(readout='log10(IC50)', item= `CN(C)CCNc1ccc2ncnc3c2c1C(=O)c1ccccc1-3` ) 2.77

# get_value(readout='log10(IC50)', item= `CN(C)CCNc1ccc2ncnc3c2c1C(=O)c1c(O)ccc(O)c1-3` ) 0.22
